The measured values listed here are drawn from the supplement of paper PMC10307832.

In this section we review reported relative viability values for a set of compounds.
System: NCI-H1734
Assay: relative viability (nuclei count vs DMSO), 5 days (fraction); higher = more cells survive
Details: first compound 0.005 µM
# respond with the number and nothing more

- compound: "COc1cc2nccc(Oc3ccc(NC(=O)Nc4cc(C)on4)c(Cl)c3)c2cc1OC [Tivozanib] + Cc1cc(Nc2cc(N3CCN(C)CC3)nc(Sc3ccc(NC(=O)C4CC4)cc3)n2)n[nH]1 [Tozasertib] (partner 0.1 µM)"
  experimentalTarget: "NCI-H1734"
  number: 0.24
- compound: "Nc1ccn([C@@H]2O[C@H](CO)[C@@H](O)[C@@H]2O)c(=O)n1 [Cytarabine] + Cc1cc(Nc2cc(N3CCN(C)CC3)nc(Sc3ccc(NC(=O)C4CC4)cc3)n2)n[nH]1 [Tozasertib] (partner 0.1 µM)"
  experimentalTarget: "NCI-H1734"
  number: 0.245

Consider the additional compound presented here.
Task item: Form: Entry = Nc1ccn([C@@H]2O[C@H](CO)[C@@H](O)[C@@H]2O)c(=O)n1 [Cytarabine] + COc1cc2c(Oc3ccc(NC(=O)C4(C(=O)Nc5ccc(F)cc5)CC4)cc3F)ccnc2cc1OCCCN1CCOCC1 [Foretinib] (partner 0.25 µM) | System = NCI-H1734 | relative viability = ____
Reply: 0.553
